Hi there, I'd appreciate the recorded protein stability index for every entry that follows.
B1: TRIM35 (parent)
chain: DKELLCCSCQADPRHQGHRVQPVK

- Variants of: B1
- procedureText: protein stability index of a GFP-peptide fusion (GPS, HEK-293T) (PSI 1-6); higher = more stable;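 further: lentivirally expressed fusions sorted by FACS into six bins by GFP to DsRed ratio, PSI derived from sequencing read proportions per bin multiplied by bin number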
- assayConditions: c terminus: a fixed tail appended
Write the number on its own, no unit after it.

Ask: Give its protein stability index value. Item: "DKELLCVSCQADPRHQGHRVQPVK"
Reply: 3.87

Ask: Try this variant too: "DKELLCCWCQADPRHQGHRVQPVK"
Reply: 2.5

Ask: Try this variant too: "DKELLCCSCQADPRHQGHRVQPVG"
Reply: 3.63

Ask: Try this variant too: "DKELLCCSCQADPYHQGHRVQPVK"
Reply: 3.35

Ask: Try this variant too: "DKELLCCSCQADPRHQGHRVQAVK"
Reply: 3.97

Ask: Try this variant too: "DKELLCCSCQADPRHFGHRVQPVK"
Reply: 2.32

Ask: Try this variant too: "DKFLLCCSCQADPRHQGHRVQPVK"
Reply: 2.34

Ask: Try this variant too: "DKELLCCSCYADPRHQGHRVQPVK"
Reply: 3.49

Ask: Try this variant too: "DKELLCCSCQADHRHQGHRVQPVK"
Reply: 3.64

Ask: Try this variant too: "DKELLCCSCQATPRHQGHRVQPVK"
Reply: 3.01

Ask: Try this variant too: "DKELLCCSCQADPMHQGHRVQPVK"
Reply: 3.97

Ask: Try this variant too: "DKSLLCCSCQADPRHQGHRVQPVK"
Reply: 3.94

Ask: Try this variant too: "DKELLCCSCQADPRSQGHRVQPVK"
Reply: 3.78

Ask: Try this variant too: "DKELLCCSCQADPRHQGHRVQPVC"
Reply: 3.18

Ask: Try this variant too: "DKELLCCSCQADPLHQGHRVQPVK"
Reply: 3.43
